# Test system: SK-MEL-5 melanoma
# test description: NCI tumour cell line growth inhibition, 48 h
Give TGI for every item shown.
Give bare numbers, in µM.

The cases that follow already have their TGI on record.
COc1ccc(C2CC(c3cccc(Nc4ccncc4)c3)=NN2c2ccc(Cl)cc2)cc1 (centres undefined)	3.18
Oc1ccc(CN2CCC(N3CCOCC3)CC2)c2cccnc12	57
CCN1/C(=C/C=C/c2n(-c3ccccc3)c3ccc(-c4nc5ccccc5s4)cc3[n+]2CC)N(c2ccccc2)c2ccc(-c3nc4ccccc4s3)cc21	1.27

Give TGI for each of the items listed below.
1. COC(=O)C(C)(C)OCc1ccc(C2NC(=O)N(c3cccc(Cl)c3)C(=O)N2c2cccc(Cl)c2)cc1 (centres undefined)
2. COc1cc2c(cc1O)-c1c(cnn1-c1ccc([N+](=O)[O-])cc1)CCC2
3. C/C=C/C/C=C/CCC(=O)[C@H]1O[C@H]1C(N)=O

# output
1: 52.8; 2: 26.2; 3: 25.2

====

# Tested on: OVCAR-5 ovarian
# test description: NCI tumour cell line growth inhibition, 48 h
Give TGI for every item shown.

The cases that follow already have their TGI on record.
CC[O-].CC[O-].O=C([CH-]C(=O)c1cccnc1)c1ccccc1.O=C([CH-]C(=O)c1cccnc1)c1ccccc1.[Ti+4]	> 100 µM
Nc1cc2c(nnn2C2OC(COCc3ccccc3)C(OCc3ccccc3)C2OCc2ccccc2)c(=O)[nH]1 (centres undefined)	> 100 µM
O=C(Nc1ccccc1)c1nn(-c2cc(S(=O)(=O)O)c([N+](=O)[O-])cc2Cl)[n+](-c2cc(S(=O)(=O)[O-])c([N+](=O)[O-])cc2Cl)n1	> 100 µM
COc1cc2cc(C(=O)CCC(=O)O)sc2cc1OC	> 100 µM

Give TGI for each of the items listed below.
1. S=c1nc(Cc2ccc(Cl)cc2)[nH][nH]1
2. COc1cc2c(cc1OCCCCCOc1cc3c(cc1OC)C(=O)N1CC(F)C[C@H]1C=N3)N=C[C@@H]1CC(F)CN1C2=O (some centres undefined)
3. CN(Cc1ccc(Cl)cc1)c1ccc(CO)c(Cl)c1
4. Fc1ccc(-c2nn3c(-c4ccc(F)c(Cl)c4)nnc3s2)cc1
5. N/C(=C\C(=O)n1nc(-c2ccccc2)cc1N)c1ccccc1

# output
1: > 100 µM; 2: 3.25 µM; 3: 4.67 µM; 4: > 50 µM; 5: 61.6 µM

====

# Test system: EKVX NSCLC
# test description: NCI tumour cell line growth inhibition, 48 h
Give TGI for every item shown.
Give bare numbers, in µM.

COC(=O)C1=C(C(=O)OC)C(Cc2ccccc2)(OO)OC1=O (centres undefined)	37.3
COC(=O)[C@@H]1C=C[C@H](OC2OC(COC(C)=O)C(OC(C)=O)C(OC(C)=O)C2OC(C)=O)n2c(=O)c3ccccc3c(=O)n21 (some centres undefined)	30.5

Give TGI for each of the items listed below.
1. COC(=O)[C@H](Cc1ccccc1)NC(=O)N1CCCN(C(=O)N[C@@H](Cc2ccccc2)C(=O)OC)CCCN(C(=O)N[C@@H](Cc2ccccc2)C(=O)OC)CCC1
2. [Cl][Sn]([Cl])([c]1ccccc1)[c]1ccccc1
3. CCCCCc1nc2c(c3c1CCCC3)CCCC2

# output
[53.5, 32.1, 26.9]
